- Test system: Pasteurella multocida 40G
- MEASUREMENT NOTES: MIC, broth-dilution microtiter test (Table III)
- Assay type: cell-based
- Set-up: unit not given here
Entries and their minimal inhibitory concentration (MIC)
REPORTED METRIC: minimal inhibitory concentration (MIC)

>>> experimental_value("CCC1OC(=O)CC(O)C(C)C(OC2OC(C)C(O)C(N(C)C)C2O)C(CC=O)CC(C)C(=O)C=CC(C)=CC1COS(=O)(=O)c1ccc(NC(C)=O)cc1 (centres unmarked) [Compound 56, 23-O-(p-Acetamidobenzenesulfonyl)-OMT]")
6.25
>>> experimental_value("CCC1OC(=O)CC(O)C(C)C(OC2OC(C)C(O)C(N(C)C)C2OC(C)=O)C(CC=O)CC(C)C(=O)C=CC(C)=CC1COC(=O)CCc1ccccc1 (centres unmarked) [Compound 30]")
0.78
>>> experimental_value("CCC1OC(=O)CC(O)C(C)C(OC2OC(C)C(O)C(N(C)C)C2O)C(CC=O)CC(C)C(=O)C=CC(C)=CC1COC(=O)OC (centres unmarked) [Compound 74]")
12.5
>>> experimental_value("CCC1OC(=O)CC(O)C(C)C(OC2OC(C)C(OC(C)=O)C(N(C)C)C2OC(C)=O)C(CC=O)CC(C)C(=O)C=CC(C)=CC1COC(=O)COc1ccccc1 (centres unmarked) [Compound 34, 2',4'-Di-O-acetyl-23-O-phenoxyacetyl-OMT]")
1.56
>>> experimental_value("CCC1OC(=O)CC(O)C(C)C(OC2OC(C)C(OC(=O)CC(C)C)C(N(C)C)C2OC(C)=O)C(CC=O)CC(C)C(=O)C=CC(C)=CC1COC(C)=O (centres unmarked) [Compound 51, 2',23-Di-O-Acetyl-4'-O-isovaleryl-OMT]")
3.12

* * *

- Tested on: Streptococcus pyogenes C203
- MEASUREMENT NOTES: ED50 in mice with experimental infections (Table IV)
- Assay type: in vivo
- ASSAY CONDITIONS: Streptococcus pyogenes, C203, oral, doses given 1 and 4 hours postinfection, read-out: ED50, Oral
REPORTED METRIC: ED50

>>> experimental_value("CCC1OC(=O)CC(O)C(C)C(OC2OC(C)C(O)C(N(C)C)C2OC(=O)Cc2ccccc2)C(CC=O)CC(C)C(=O)C=CC(C)=CC1CO (centres unmarked)")
"92 mg/kg"
>>> experimental_value("CCC(=O)OCC1C=C(C)C=CC(=O)C(C)CC(CC=O)C(OC2OC(C)C(O)C(N(C)C)C2OC(C)=O)C(C)C(O)CC(=O)OC1CC (centres unmarked)")
"150 mg/kg"
>>> experimental_value("CCC1OC(=O)CC(O)C(C)C(OC2OC(C)C(OC(C)=O)C(N(C)C)C2OC(C)=O)C(CC=O)CC(C)C(=O)C=CC(C)=CC1COC(=O)CSc1ccc(Cl)c(Cl)c1 (centres unmarked)")
"> 150 mg/kg"
>>> experimental_value("CCC1OC(=O)CC(O)C(C)C(OC2OC(C)C(OC(C)=O)C(N(C)C)C2OC(C)=O)C(CC=O)CC(C)C(=O)C=CC(C)=CC1COC(=O)c1ccccc1 (centres unmarked)")
"146 mg/kg"
>>> experimental_value("CCC1OC(=O)CC(O)C(C)C(OC2OC(C)C(O)C(N(C)C)C2OC(C)=O)C(CC=O)CC(C)C(=O)C=CC(C)=CC1COC(=O)C=Cc1ccccc1 (centres unmarked)")
"146 mg/kg"
